# Tested on: senescent Primary Renal Cortical Cells
# measurement description: CellTiter-Glo cell viability assay, senescent renal epithelial cells
# Assay type: cell-based
# stated conditions: 72 h, 3 days
value kind: IC50 (nM)
Could you give me the number in nM? Just the number is fine.

(Q) Specify IC50 for CC1(C)CCC(c2ccc(Cl)cc2)=C(CN2CCN(c3ccc(C(=O)NS(=O)(=O)c4ccc(N[C@H](CCN5CCOCC5)CSc5ccccc5)c(S(=O)(=O)C(F)(F)F)c4)cc3)CC2)C1 and stop.
(A) 25

Source: patent US11980616B2
